Target: Glucagon-like peptide 1 receptor (Homo sapiens) (UniProt P43220)
Sequence (P43220 whole entry, looked up): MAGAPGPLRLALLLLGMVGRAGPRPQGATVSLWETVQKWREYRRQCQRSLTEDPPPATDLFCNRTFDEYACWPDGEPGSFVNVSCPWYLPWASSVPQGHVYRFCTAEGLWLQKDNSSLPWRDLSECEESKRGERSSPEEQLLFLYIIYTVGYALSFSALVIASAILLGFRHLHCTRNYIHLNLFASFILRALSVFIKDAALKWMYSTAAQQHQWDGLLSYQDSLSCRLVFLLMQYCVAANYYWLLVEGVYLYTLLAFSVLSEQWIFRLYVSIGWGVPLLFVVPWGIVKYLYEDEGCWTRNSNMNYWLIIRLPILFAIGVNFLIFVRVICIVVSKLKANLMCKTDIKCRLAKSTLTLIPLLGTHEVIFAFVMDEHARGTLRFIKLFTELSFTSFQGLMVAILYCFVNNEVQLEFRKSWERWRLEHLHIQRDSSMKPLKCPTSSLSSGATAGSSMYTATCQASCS
Test: qHTS of GLP-1 Receptor Inverse Agonists (Inhibition Mode); further: nearly all actives have a fitted effect of over 55% in size
Conditions: HEK293 GLP-1R CRE-luciferase, luminescence, 24 h, GLP-1R form is constitutively active; series mostly up to 38.3 µM
The campaign covered roughly 410,000 compounds. About 6,400 (1.6%) were called active. Roughly 20% stayed inconclusive and do not appear here. The call rests on the fitted dose curve; in most records, active means well fitted inhibition curve with a large enough effect; inconclusive means small, poorly fitted or top-dose-only effect; inactive means no such curve, though single readings can be large or run the other way. What follows is part of a selection rich in actives, with near analogues and random picks from the rest.
Returns: one label drawn from y (active), n (inactive)

Answered examples (2):
- compound: "Oc1ccc(-c2nc3ccccc3nc2-c2ccc(O)cc2O)c(O)c1"
  tested.on: "Glucagon-like peptide 1 receptor (Homo sapiens) (UniProt P43220)"
  group.label: "y"
- compound: "Cc1ccc(C(=O)N2CCCC2)c(F)c1F"
  tested.on: "Glucagon-like peptide 1 receptor (Homo sapiens) (UniProt P43220)"
  group.label: "n"

What outcome does the record of this test show for `CN(C)c1nc(Nc2ccc(Cl)c(Cl)c2)nc(N(C)C)n1` ?
n

What outcome does the record of this test show for `CC(C)Cc1ccc(-c2cc3nc(NCc4cccc(Cl)c4)ccn3n2)cc1` ?
y

What outcome does the record of this test show for O=C1c2ccccc2C(c2nc3ccccc3[nH]2)N1c1ccccc1 (stereo not given) ?
n

What outcome does the record of this test show for `Cc1ccc(S(=O)(=O)N2C[C@]3(O)C[C@@H]4C(=O)N(c5ccccc5)C(=O)[C@@H]4C[C@]3(OC(=O)NC3CC3)C2)cc1` ?
n

What outcome does the record of this test show for `Cn1cnc(S(=O)(=O)N2C[C@@H](O)COC[C@@H]3O[C@H](CC(=O)NC4CCC4)CC[C@H]32)c1` ?
n

What outcome does the record of this test show for `Cc1ccccc1OCC(=O)Nc1ccc(S(=O)(=O)N2CCOCC2)cc1` ?
n

What outcome does the record of this test show for `COc1ccc(NS(=O)(=O)c2cc(NC(=O)/C=C/c3cc(OC)c(OC)c(OC)c3)ccc2N2CCCCC2)cc1` ?
n

What outcome does the record of this test show for COc1ccccc1C(CNC(=O)c1ccc(C)c(S(=O)(=O)N2CCCCC2)c1)N(C)C (stereo not given) ?
n

What outcome does the record of this test show for `CCc1nc2ccc(C(=O)N(C)Cc3ccco3)cn2c1N(C)C(=O)Cc1ccccc1` ?
n

What outcome does the record of this test show for `CCN(Cc1ccncc1)C(=S)Nc1ccccc1C` ?
n

What outcome does the record of this test show for `CCOC(=O)[C@]12CCC=C1N(Cc1ccco1)C(=O)[C@H](CC(=O)N1CCSCC1)C2` ?
n

What outcome does the record of this test show for `C[C@H](NC(=O)OC(C)(C)C)c1nnc(SCC(=O)Nc2ccc(Br)cc2)o1` ?
n

What outcome does the record of this test show for `OCCNc1nc(Nc2ccc(Cl)c(Cl)c2)nc2ccccc12` ?
y

What outcome does the record of this test show for `O=C(Cc1ccc([N+](=O)[O-])cc1)NCCS(=O)(=O)N1CCN(c2ccccc2)CC1` ?
n

What outcome does the record of this test show for `CCNC(=O)CCc1nc(-c2ccc(C(C)(C)C)cc2)no1` ?
y

What outcome does the record of this test show for CC1(C2CC2)NC(=O)N(CC(=O)N2CCN(c3ccccc3F)CC2)C1=O (stereo not given) ?
n

What outcome does the record of this test show for CC1(C(=O)Nc2ccc3c(c2)OCCO3)CSCC(=O)N1CCOc1ccccc1 (stereo not given) ?
n

What outcome does the record of this test show for `CCOC1=C2[C@@H](CN(S(=O)(=O)c3ccc(C)cc3)[C@H]2c2ccccc2F)[C@H]2C(=O)N(Cc3ccccc3)C(=O)[C@H]2C1` ?
n
